Biological target: 5α-reductase (Homo sapiens)
Construct: host or cells: Hs68 human genital skin fibroblasts
Sequence (P18405 1-259): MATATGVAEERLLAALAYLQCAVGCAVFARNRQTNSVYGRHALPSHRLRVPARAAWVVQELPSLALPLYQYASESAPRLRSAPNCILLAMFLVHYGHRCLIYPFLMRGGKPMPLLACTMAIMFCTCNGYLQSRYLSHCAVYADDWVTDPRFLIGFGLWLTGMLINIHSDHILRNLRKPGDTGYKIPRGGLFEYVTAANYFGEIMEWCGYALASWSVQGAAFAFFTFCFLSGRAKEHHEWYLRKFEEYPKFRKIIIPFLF
Assay: 5α-Reductase activity (conversion of testosterone to DHT) in Hs68 human genital skin fibroblasts, TLC of radiolabelled steroids
Type: cell-based
Conditions: Concentration 10.0 mM; Hs68 cells, four hours incubation; 0 equals no activity, 100 equals total inhibition
# Lookup of reported inhibition at 10000 µM keyed by entry
Write the number in % without appending the unit.

Noted inhibition at 10000 µM for `CCCCN1C(=O)CCC2=C1CCc1cc(F)ccc12` , tested on 5α-reductase (Homo sapiens): 56

Noted inhibition at 10000 µM for `O=C1CCC2=C(CCc3ccccc32)N1` , tested on 5α-reductase (Homo sapiens): 63

Noted inhibition at 10000 µM for `CN1C(=O)CCC2=C1CCc1cc(Br)ccc12` , tested on 5α-reductase (Homo sapiens): 98
